System: P. aeruginosa NCTC 13437
Assay: Broth microdilution MIC/MBC, P. aeruginosa
Assay type: cell-based, Pseudomonas aeruginosa
Conditions: value before the parentheses; two values = two repeats
Could you please mark T for values of MIC P. aeruginosa NCTC 13437 below 300 µM and F for values at or above it?

{"columns": ["Compound", "Label"],
 "data": [
  ["CCCC[P+](CCCC)(CCCC)[Au-][S][C@@H]1OC(COC(C)=O)[C@@H](OC(C)=O)[C@H](OC(C)=O)C1OC(C)=O (stereo partly drawn)", "F"],
  ["Fc1ccc([PH+](c2ccc(F)cc2)c2ccc(F)cc2)cc1.[Cl][Au]", "F"],
  ["CC[P+](CC)(CC)[Au-][S]CCO", "T"],
  ["CC(=O)NC1C([S][Au][PH](C)(C)C)OC(CO)C(O)C1O (stereo not drawn)", "F"],
  ["CC[PH](CC)(CC)[Au][S]C1OC(CO)C(O)C(O)C1O (stereo not drawn) [Compound 10]", "T"],
  ["CC[P+](CC)(CC)[Au-][S][C@@H]1OC(CO)[C@@H](O)[C@H](O)C1NC(C)=O (stereo partly drawn)", "F"],
  ["CC(=O)OCC1O[C@@H]([S][Au-][P+](c2ccccc2)(c2ccccc2)c2ccccc2)C(OC(C)=O)[C@@H](OC(C)=O)[C@@H]1OC(C)=O (stereo partly drawn)", "F"],
  ["CC[PH](CC)(CC)[Au][S][C@@H]1O[C@H](COC(C)=O)[C@@H](OC(C)=O)[C@H](OC(C)=O)[C@H]1OC(C)=O [Compound 1, reference compound]", "F"],
  ["CC[PH](CC)(CC)[Au][S]C1OC(CO)C(O)C(O)C1O (stereo not drawn) [Compound 11]", "F"]
]}
